System: Kv3.1 (Homo sapiens)
Construct: expressed in transfected cells
Assay Summary: Kv3.1 automated patch clamp (Qube) cellular electrophysiology assay
Format: cell-based
Recorded Metric: EC50 (µM)
Could you give me the number in µM? Just the number is fine.

COc1cc(Oc2ccc(-n3c(=O)[nH]c4cc(F)cnc43)cn2)ccc1C = 2.2

Ask | Name the reported EC50 value associated with the compound Cc1ccc(Oc2ccc(-n3c(=O)[nH]c4cnccc43)cn2)cc1Cl
Reply | 10

Ask | Name the reported EC50 value associated with the compound CC(C)c1cc(Oc2ccc(-n3c(=O)[nH]c4cc(F)cnc43)cn2)ccc1C#N
Reply | 2.7

Ask | Name the reported EC50 value associated with the compound O=c1[nH]c2cnccc2n1-c1ccc(Oc2cccc3c2C2(CC2)CO3)nc1
Reply | 2

Ask | Name the reported EC50 value associated with the compound Cc1ccc(Oc2ccc(-n3c(=O)[nH]c4cccnc43)cn2)cc1Cl
Reply | 1.6

Ask | Name the reported EC50 value associated with the compound CC(C)c1cc(C#N)ccc1O[C@H]1C[C@H](n2c(=O)[nH]c3cccnc32)C1
Reply | 17.4

Ask | Name the reported EC50 value associated with the compound COc1cc(Oc2ncc(-n3c(=O)[nH]c4cnccc43)cc2C)ccc1C
Reply | 3.1

Ask | Name the reported EC50 value associated with the compound Cc1cc(-n2c(=O)[nH]c3ccccc32)cnc1Oc1cccc2c1C1(CC1)CO2
Reply | 2.8

Ask | Name the reported EC50 value associated with the compound CC(C)c1cc(Oc2ccc(-n3c(=O)[nH]c4ccccc43)cn2)ccc1C#N
Reply | 15.6

Ask | Name the reported EC50 value associated with the compound COc1cc(Oc2ccc(-n3c(=O)[nH]c4cc(Cl)cnc43)cn2)ccc1C
Reply | 10

Ask | Name the reported EC50 value associated with the compound CC(C)c1cc(Oc2ccc(-n3c(=O)[nH]c4cncnc43)cc2F)ccc1C#N
Reply | 18.8

###

System: Kv3.1 (Homo sapiens, UniProt P48547)
Construct: expressed in transfected cells
Sequence (P48547 1-511): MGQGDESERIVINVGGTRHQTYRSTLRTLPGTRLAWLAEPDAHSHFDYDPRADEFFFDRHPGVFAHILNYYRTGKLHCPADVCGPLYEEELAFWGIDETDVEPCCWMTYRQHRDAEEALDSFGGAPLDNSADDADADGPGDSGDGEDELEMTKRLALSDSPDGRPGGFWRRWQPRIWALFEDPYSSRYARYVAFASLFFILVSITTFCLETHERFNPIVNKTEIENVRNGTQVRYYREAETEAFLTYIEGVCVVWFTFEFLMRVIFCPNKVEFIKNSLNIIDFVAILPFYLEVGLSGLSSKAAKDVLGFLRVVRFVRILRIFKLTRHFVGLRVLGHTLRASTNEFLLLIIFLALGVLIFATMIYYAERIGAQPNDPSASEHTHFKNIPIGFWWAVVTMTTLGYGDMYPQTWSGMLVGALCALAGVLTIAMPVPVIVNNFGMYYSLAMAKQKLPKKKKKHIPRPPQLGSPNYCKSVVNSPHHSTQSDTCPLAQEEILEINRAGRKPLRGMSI
Assay Summary: Kv3.1 automated patch clamp (Qube) cellular electrophysiology assay
Format: cell-based
Experimental: In vitro, high-throughput cellular electrophysiology was employed to detect voltage-dependence of compounds in single concentration screening and IC50 determination for library and medicinal chemistry profiling compounds in 384 well plates. […] Currents through activated channels were measured directly by APC by employing depolarization voltage steps. […] Selectivity was assessed against Kv3.2, Kv3.3, and Kv3.4 overexpressing cell lines using similar methods.
// NB: equality with 4 µM counts as condition not met; only EC50 strictly below is condition met

COc1cc(Oc2ccc(-n3c(=O)[nH]c4cnccc43)cn2)ccc1C = condition not met
Cc1ccc(Oc2ccc(-n3c(=O)[nH]c4cccnc43)cn2)cc1F = condition met
CC(C)(C)c1cc(C#N)ccc1Oc1ccc(-n2c(=O)[nH]c3cccnc32)cn1 = condition met

Ask | For this compound, is EC50 lower than 4 µM? O=c1[nH]c2ccccc2n1-c1ccc(Oc2cccc3c2C2(CC2)CO3)c(F)c1
Reply | condition met

Ask | For this compound, is EC50 lower than 4 µM? Cc1cc(C#N)ccc1Oc1ccc(-n2c(=O)[nH]c3cccnc32)cn1
Reply | condition not met
